testMethodNotes: NCI Yeast Anticancer Drug Screen. Data for the sgs1 strain (AID 173);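 also: 0% = growth of vehicle-only control cultures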
measurementConditions: S. cerevisiae sgs1 mutant, at 11.0 µM, hits give high values
Compounds without any hit were thinned out: in the full panel of roughly 79,000, 15% have a hit.
measurementLabel: growth inhibition (%)

INSERT INTO assay_data (molecule, reportedmeasurement) VALUES
  ('NNc1ccccc1-c1nc2ccccc2[nH]1', 0),
  ('O=C(NO)c1coc2ccccc2c1=O', -2),
  ('COc1cc2oc3ccccc3c(=O)c2cc1CSc1ccccc1N', 5),
  ('Cc1ccc(S(=O)(=O)N/N=C/C(Br)=C(/Br)C(=O)O)cc1', 56),
  ('Cc1ccc(Nc2n[nH]c(=S)s2)c(C)c1', 9),
  ('Cc1ccc(NC(=O)CCC(=O)C(C)C(=O)c2ccccc2)c(C)c1 (configuration not stated)', -3),
  ('ClCCCOc1c(Cl)cc(Cl)cc1Cl', -21);

###

testMethodNotes: NCI Yeast Anticancer Drug Screen. Data for the bub3 strain (AID 167)
measurementConditions: S. cerevisiae bub3 mutant strain, at 3.7 µM, hits give high values
This is part of a sample that, as a whole, favours compounds with a hit. Of some 79,000 tested, about 15% had one in any assay.
measurementLabel: growth inhibition (%)

INSERT INTO assay_data (compound, measurementlabel, unittext, reportedmeasurement) VALUES
  ('COc1ccc2c3c1OC(C)C31CC(=O)CCC1CC2 (configuration not stated)', 'growth inhibition', '%', -3),
  ('c1c[nH]c(CN2CCN(Cc3ncc[nH]3)CC2)n1', 'growth inhibition', '%', 27),
  ('O=C(O)/C=C\C(=O)Nc1ccc2c(c1)Cc1cc(Cl)ccc1-2', 'growth inhibition', '%', -5),
  ('CC(/C=C/c1ccc([N+](=O)[O-])o1)=N/N1CC(CN2CCOCC2)OC1=O (configuration not stated)', 'growth inhibition', '%', -3),
  ('O=C1C(=O)c2cccc([N+](=O)[O-])c2-c2ccccc21', 'growth inhibition', '%', 35),
  ('C[n+]1c(-c2ccc(/C=N/NC(=O)c3ccc(C(=O)N/N=C/c4ccc(-c5cn6ccccc6[n+]5C)cc4)cc3)cc2)cn2ccccc21', 'growth inhibition', '%', 2),
  ('O=C1c2ccccc2-c2cc3ccccc3c(=O)n21', 'growth inhibition', '%', 2),
  ('CCCCS(=O)(=O)Nc1ccc(Nc2c3ccccc3nc3ccccc23)c(OC)c1', 'growth inhibition', '%', -63),
  ('Cc1ccnc2c(O)cccc12', 'growth inhibition', '%', 47),
  ('CN(C)/C(=N/C(=S)Nc1ccccc1)SCc1ccccc1', 'growth inhibition', '%', -2),
  ('NC(=S)N1N=C2c3ccccc3CC[C@H]2[C@@H]1c1ccc(Cl)cc1', 'growth inhibition', '%', 9),
  ('O=C(NC(N1CCN(c2cc3c(cc2F)c(=O)c(C(=O)O)cn3C2CC2)CC1)(C(F)(F)F)C(F)(F)F)c1ccccc1', 'growth inhibition', '%', -1),
  ('COc1ccc2cc3c4cc5c(cc4cc[n+]3cc2c1OC)OCO5', 'growth inhibition', '%', 19),
  ('COc1cc([N+](=O)[O-])c2ncccc2c1Br', 'growth inhibition', '%', -14),
  ('CO[C@@]1([C@@H](Cl)c2ccccc2)C(=O)N(C)/C(=C\c2ccccc2)C(=O)N1C', 'growth inhibition', '%', -3),
  ('COc1cc(C2C3=C(COC3=O)Oc3cc4c(cc32)OCO4)cc(OC)c1O (configuration not stated)', 'growth inhibition', '%', -1),
  ('CCC(/C=C/c1ccccc1)=N\Nc1ccc(Cl)cc1', 'growth inhibition', '%', 2),
  ('S=C1N(c2ccc(Cl)cc2)C2=C(N=Nc3ccccc3)C(=Nc3ccccc3S2)N1c1ccccn1', 'growth inhibition', '%', 22),
  ('Cc1ccc(S(=O)(=O)Nc2cccc3cccnc23)cc1', 'growth inhibition', '%', -14),
  ('O=[N+]([O-])c1cc(Cl)ccc1S(=O)(=O)c1ccc(Cl)cc1[N+](=O)[O-]', 'growth inhibition', '%', 7),
  ('CC1(C)C(O)OC(O)C1(C)C (configuration not stated)', 'growth inhibition', '%', -7),
  ('O=C(O)C(=Cc1ccc(-c2ccccc2)cc1)C(=O)O', 'growth inhibition', '%', 1);

###

testMethodNotes: NCI Yeast Anticancer Drug Screen. Data for the bub3 strain (AID 167)
measurementConditions: S. cerevisiae bub3 mutant strain, at 3.7 µM, hits give high values
Compounds without any hit were thinned out: in the full panel of roughly 79,000, 15% have a hit.
// reported growth inhibition for each item listed
measurementLabel: growth inhibition (%)

INSERT INTO measurements (molecule, measurementlabel, reportedmeasurement) VALUES
  ('COc1cc2c(cc1OC)[C@@H](Nc1ccc(C#N)cc1)C1COC(=O)[C@@H]1C2c1cc(OC)c(O)c(OC)c1 (stereo partly specified)', 'growth inhibition', -13),
  ('Nc1ccc2c(c1)C(=O)c1c(F)cccc1-2', 'growth inhibition', -4),
  ('O=C1Nc2ccc(Br)cc2C1=Nc1cccnc1', 'growth inhibition', -47),
  ('Cc1c(Cl)c(C)c(Cl)c(O)c1Cl', 'growth inhibition', -2),
  ('CNC(=O)OCc1c(COC(=O)NC)c(C)n(-c2ccc(Br)cc2)c1C', 'growth inhibition', -18),
  ('CC1=CC(=O)C=CC1=Nc1cc(Cl)c(O)c(Cl)c1', 'growth inhibition', 11),
  ('Cc1cc(O)c(C(C)C)cc1SC#N', 'growth inhibition', 50),
  ('O=C(NOC(=O)c1ccc([N+](=O)[O-])cc1)c1ccc(Cl)cc1', 'growth inhibition', -18),
  ('CCS(=O)(=O)Nc1ccc(Nc2c3ccccc3nc3ccccc23)c(OC)c1', 'growth inhibition', -32),
  ('O=[N+]([O-])/C=C/c1cc2ccc3ccccc3c2[nH]1', 'growth inhibition', 28),
  ('O=C1c2ccccc2C(=O)c2c(O)c(NCCNCCO)cc(O)c21', 'growth inhibition', 21);

###

// reported growth inhibition for each item listed
testMethodNotes: NCI Yeast Anticancer Drug Screen. Data for the mec2-1 strain (AID 157)
measurementConditions: S. cerevisiae mec2-1 strain, at 3.7 µM, hits give high values
This is part of a sample that, as a whole, favours compounds with a hit. Of some 79,000 tested, about 15% had one in any assay.
measurementLabel: growth inhibition (%)

INSERT INTO results (molecule, measurementlabel, reportedmeasurement) VALUES
  ('CC1CCN(CCC(=O)c2ccc([N+](=O)[O-])cc2)CC1', 'growth inhibition', 2),
  ('C/C1=C/C2OC(=O)C3(C)C2C(CC2(C)OC1=CC2=O)OC3(O)C(C)C (stereo not drawn)', 'growth inhibition', -27),
  ('c1ccc(-c2cc(C3CO3)c3ccccc3n2)cc1 (stereo not drawn)', 'growth inhibition', -1),
  ('CCOC(=O)Nc1ccc(C)c(NC(=O)OCC)c1', 'growth inhibition', 8),
  ('CCC[CH2][Ge]([CH2]CCC)([CH2]CCC)[O]C(=O)C(O)c1ccccc1 (stereo not drawn)', 'growth inhibition', 2),
  ('CN(C)CCNc1ccc2ncn3c4ccc(O)cc4c(=O)c1c23', 'growth inhibition', -7),
  ('CCCCCCCCSC1=C(Cl)C(=O)C(OC)=C(OC)C1=O', 'growth inhibition', -30),
  ('O=[N+]([O-])c1cc[n+]([O-])c(Cl)c1', 'growth inhibition', 15),
  ('CCC(=O)Nc1ccc(N=NN(C)C)cc1', 'growth inhibition', -5),
  ('CC(C)CCC[C@@H](C)[C@H]1CC[C@H]2[C@@H]3CC[C@H]4C[C@H](N)CC[C@]4(C)[C@H]3CC[C@]12C', 'growth inhibition', -1),
  ('c1c[nH]c(CN2CCN(Cc3ncc[nH]3)CC2)n1', 'growth inhibition', -1),
  ('CCOC(=O)/C(=C/c1cccc(Cl)c1)N(CC)CC', 'growth inhibition', 2),
  ('CCN(CC)CCNc1ccc(C)c2sc3ccc(O)cc3c(=O)c12', 'growth inhibition', 17),
  ('Cc1ccc([N+](=O)[O-])c2c(NCCC[N+](C)(C)[O-])c3ccccc3nc12', 'growth inhibition', -10),
  ('O=C(Cc1ccccc1)NNc1nc(NNC(=O)c2ccncc2)nc(Nc2ccc(Cl)cc2)n1', 'growth inhibition', -5),
  ('CC(C)C(c1ccccc1)c1ccccc1', 'growth inhibition', 3),
  ('COc1cccc(C(NC2=NCCC=N2)c2cc3c(cc2O)OCO3)c1O (stereo not drawn)', 'growth inhibition', -3),
  ('O=C(O)C1CCCCC1c1c2ccc(=O)cc-2oc2cc(O)ccc12 (stereo not drawn)', 'growth inhibition', -1),
  ('CN(C)/C(=N/C(=S)Nc1ccccc1)SCc1ccccc1', 'growth inhibition', -5),
  ('CCCC/C=C1\CCC(CN2CCCC2)C1=O (stereo not drawn)', 'growth inhibition', 7),
  ('CC(C)OP(=O)(OC(C)C)C(=NCCO)NNc1ccc([N+](=O)[O-])cc1', 'growth inhibition', -16),
  ('O=C1C(=O)c2cccc([N+](=O)[O-])c2-c2ccccc21', 'growth inhibition', 9),
  ('CC(C)(CN1CCCCC1)C(=O)/C=C/c1c(Cl)cccc1Cl', 'growth inhibition', 20);

Hello, the source for this data is PubChem BioAssay (NCI), in case you need it.
